Every entry's value here was drawn from paper PMC9516332.

assayed-target: panel of 255 wild-type kinases (Homo sapiens)
assay-name: Kinase panel profiling at 1 µmol/L (MSA or IMAP), percentage inhibition
Format: biochemical
stated-conditions: NDR2; 1 µmol/L single concentration; read-out: %-inhibition, NDR2
measurement-kind: inhibition at 1 µM (%)
Give just the numeric value; % need not be written.

-- ask What does the record list as inhibition at 1 µM for `Cn1cnc2c(F)c(Nc3ccc(Br)cc3Cl)c(C(=O)NOCCO)cc21` ?
-- reply -3.24

-- ask Then what about the molecule `CCc1nc(C(N)=O)c(Nc2ccc(N3CCC(N4CCN(C)CC4)CC3)c(OC)c2)nc1NC1CCOCC1` ?
-- reply 66

-- ask Now try `CCn1c(=O)c(-c2cc(NC(=O)Nc3ccccc3)c(F)cc2Br)cc2cnc(NC)cc21` .
-- reply 2.69

-- ask Item: `Cc1nc(NC(=O)N2CCC[C@H]2C(N)=O)sc1-c1ccnc(C(C)(C)C(F)(F)F)c1`
-- reply -2

* * *

inhibition at 1 µM values by entry
assayed-target: panel of 255 wild-type kinases (Homo sapiens)
assay-name: Kinase panel profiling at 1 µmol/L (MSA or IMAP), percentage inhibition
Format: biochemical
stated-conditions: kinase HGK; 1 µmol/L single concentration; read-out: %-inhibition at 1 µmol/L, HGK
A number alone suffices; assume %.

Reference set (2 entries):
[
  {
    "molecule": "CO[C@]1(C(=O)N[C@@H](C)c2ccc(-n3cc(F)cn3)nc2)CC[C@H](c2nc(C)cc(Nc3cc(C)[nH]n3)n2)CC1",
    "inhibition at 1 µM [%]": 3
  },
  {
    "molecule": "Cc1nc(NC(=O)N2CCC[C@H]2C(N)=O)sc1-c1ccnc(C(C)(C)C(F)(F)F)c1",
    "inhibition at 1 µM [%]": 2.66
  }
]

-- ask State its inhibition at 1 µM on panel of 255 wild-type kinases (Homo sapiens): `Cn1cnc2c(F)c(Nc3ccc(Br)cc3Cl)c(C(=O)NOCCO)cc21`
-- reply 1.58

* * *

assayed-target: UniProt Q96KB5
Sequence (Q96KB5 whole entry): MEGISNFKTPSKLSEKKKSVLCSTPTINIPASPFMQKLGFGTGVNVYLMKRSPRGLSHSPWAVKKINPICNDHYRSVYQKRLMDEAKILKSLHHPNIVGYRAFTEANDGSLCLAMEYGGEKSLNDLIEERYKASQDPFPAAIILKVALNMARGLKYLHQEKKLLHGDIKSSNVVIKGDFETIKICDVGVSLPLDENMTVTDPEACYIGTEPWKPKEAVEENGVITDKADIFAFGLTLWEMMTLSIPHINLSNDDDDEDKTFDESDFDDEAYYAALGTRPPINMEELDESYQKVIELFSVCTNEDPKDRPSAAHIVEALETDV
assay-name: Kinase panel profiling at 1 µmol/L (MSA or IMAP), percentage inhibition
Assay type: biochemical
stated-conditions: kinase PBK; 1 µmol/L single concentration; read-out: %-inhibition at 1 µmol/L, PBK
measurement-kind: inhibition at 1 µM (%)
Use % as the unit, but write only the number.

Would you please look over these solved cases?
[
  {
    "molecule": "CCn1c(=O)c(-c2cc(NC(=O)Nc3ccccc3)c(F)cc2Br)cc2cnc(NC)cc21 [ripretinib]",
    "u": "%",
    "value-reported": -4
  },
  {
    "molecule": "CCc1nc(C(N)=O)c(Nc2ccc(N3CCC(N4CCN(C)CC4)CC3)c(OC)c2)nc1NC1CCOCC1 [gilteritinib]",
    "u": "%",
    "value-reported": -2.54
  }
]

Next molecule, inhibition at 1 µM to be filled in.
-- ask For the molecule COC(=O)N[C@@H](C)CNc1nccc(-c2cn(C(C)C)nc2-c2cc(Cl)cc(NS(C)(=O)=O)c2F)n1 [encorafenib] , what inhibition at 1 µM is on record?
-- reply 8

* * *

assayed-target: panel of 255 wild-type kinases (Homo sapiens, UniProt P14616)
Sequence (P14616 27-1297): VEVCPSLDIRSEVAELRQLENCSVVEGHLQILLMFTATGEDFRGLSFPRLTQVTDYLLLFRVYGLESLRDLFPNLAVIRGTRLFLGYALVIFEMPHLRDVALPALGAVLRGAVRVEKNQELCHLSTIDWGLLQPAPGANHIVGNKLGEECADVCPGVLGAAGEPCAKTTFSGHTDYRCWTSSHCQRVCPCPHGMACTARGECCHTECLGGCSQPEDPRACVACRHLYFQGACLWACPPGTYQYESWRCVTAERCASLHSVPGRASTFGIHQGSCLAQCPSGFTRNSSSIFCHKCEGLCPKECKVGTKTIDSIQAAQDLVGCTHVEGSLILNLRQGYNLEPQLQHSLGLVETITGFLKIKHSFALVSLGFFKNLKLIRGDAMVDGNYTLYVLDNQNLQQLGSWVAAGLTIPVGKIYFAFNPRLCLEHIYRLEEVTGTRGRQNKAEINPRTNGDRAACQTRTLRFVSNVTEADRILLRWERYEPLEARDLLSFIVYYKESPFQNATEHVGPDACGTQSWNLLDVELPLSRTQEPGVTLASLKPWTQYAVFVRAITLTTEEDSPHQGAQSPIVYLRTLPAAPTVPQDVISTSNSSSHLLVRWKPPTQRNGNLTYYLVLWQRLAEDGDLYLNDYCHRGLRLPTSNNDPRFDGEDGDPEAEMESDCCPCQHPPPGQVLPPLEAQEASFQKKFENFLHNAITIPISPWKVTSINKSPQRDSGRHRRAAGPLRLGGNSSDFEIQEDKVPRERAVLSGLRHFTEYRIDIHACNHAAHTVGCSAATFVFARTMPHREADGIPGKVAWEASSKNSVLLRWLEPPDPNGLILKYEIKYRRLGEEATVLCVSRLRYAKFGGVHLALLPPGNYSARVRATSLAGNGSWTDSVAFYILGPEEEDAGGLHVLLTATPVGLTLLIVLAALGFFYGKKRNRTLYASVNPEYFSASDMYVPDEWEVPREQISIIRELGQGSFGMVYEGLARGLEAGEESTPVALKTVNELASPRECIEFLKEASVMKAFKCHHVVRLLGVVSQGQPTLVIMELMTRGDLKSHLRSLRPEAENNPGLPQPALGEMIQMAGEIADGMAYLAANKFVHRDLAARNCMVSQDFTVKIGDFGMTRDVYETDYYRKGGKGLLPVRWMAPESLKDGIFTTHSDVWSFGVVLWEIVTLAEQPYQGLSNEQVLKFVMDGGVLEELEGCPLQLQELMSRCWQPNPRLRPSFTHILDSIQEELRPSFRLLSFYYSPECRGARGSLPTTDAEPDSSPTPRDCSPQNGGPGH
assay-name: Kinase panel profiling at 1 µmol/L (MSA or IMAP), percentage inhibition
Format: biochemical
stated-conditions: kinase IRR; 1 µmol/L single concentration; read-out: %-inhibition at 1 µmol/L, IRR
measurement-kind: inhibition at 1 µM (%)
Numeric answer only, unit % assumed.

[
  {
    "compound": "CCN1C(=O)N(c2c(F)c(OC)cc(OC)c2F)Cc2cnc3[nH]c(CN4CCOCC4)cc3c21 [pemigatinib]",
    "inhibition at 1 µM (%)": 8
  },
  {
    "compound": "C[C@H](Nc1ncnc2nc[nH]c12)c1cc2cccc(Cl)c2c(=O)n1-c1ccccc1 [duvelisib]",
    "inhibition at 1 µM (%)": 7
  }
]

-- ask Form field: reported inhibition at 1 µM of C[C@H]1Oc2cc(cnc2N)-c2c(nn(C)c2C#N)CN(C)C(=O)c2ccc(F)cc21 [lorlatinib]
-- reply 78

-- ask Then CCc1nc(C(N)=O)c(Nc2ccc(N3CCC(N4CCN(C)CC4)CC3)c(OC)c2)nc1NC1CCOCC1 [gilteritinib] ?
-- reply 100
